system: H9c2 cells, DAPI nuclear count (cytotoxicity), overnight; experiment: H9c2 cardiomyoblast cytotoxicity by nuclear count, SAR follow-up, cytotoxicity control for triacylglycerol accumulation inhibitor project, cell-based, DAPI fluorescence (AID 743160)
The source made the active and inactive calls. How the calls were made is not given here.
Listed here are molecules together with their documented IC50.

Below: 3 molecules and their reported IC50.
MOLECULE	IC50
CCC(C)(C)NC(=O)C(c1ccc(OC)cc1)N(Cc1cccs1)C(=O)CCC(=O)Nc1cc(C)on1 (centres undefined)	> 50 µM (inactive)
Cc1ccc(Nc2nc(OC(C(F)(F)F)C(F)(F)F)nc(N3CCOCC3)n2)cc1	> 50 µM (inactive)
O=C(CSc1nc2ccc(Nc3nc(N4CCOCC4)nc(N4CCOCC4)n3)cc2s1)NCc1ccco1	> 50 µM (inactive)

Moving on to another molecule below.
input: Give its IC50 value. Item: `COCCN1Cc2cccc(C(=O)Nc3cccnc3)c2C1=O`
output: > 50 µM (inactive)

====

IC50: recorded values
test system: H9c2 cells, DAPI nuclear count (cytotoxicity), overnight; assay: H9c2 cardiomyoblast cytotoxicity by nuclear count, SAR follow-up, cytotoxicity control for triacylglycerol accumulation inhibitor project, cell-based, DAPI fluorescence (AID 743160)
Active and inactive are the calls of the source. No rule for the calls is given here.

MOLECULE	IC50
Cc1ccccc1NC(=O)CSc1nc2ccc(Nc3nc(N4CCOCC4)nc(N4CCOCC4)n3)cc2s1	40 µM (inactive)
CCCCSc1nc2ccc(Nc3nc(N4CCOCC4)nc(N4CCOCC4)n3)cc2s1	> 50 µM (inactive)
COc1cc2c(cc1OC)C(C)N(C(=O)c1cc3c(C)cc(C)cc3[nH]1)CC2 (stereo not given)	> 50 µM (inactive)

input: Form: Entry = Cc1ccccc1OCCNc1cc(N2CC(C)NC(C)C2)ccc1[N+](=O)[O-] (stereo not given) | System = H9c2 cells, DAPI nuclear count (cytotoxicity), overnight | IC50 = ____
output: > 50 µM (inactive)

input: Continue with `CCCCN1Cc2cccc(C(=O)Nc3cccc(-c4nc5ccccc5[nH]4)c3)c2C1=O`
output: > 50 µM (inactive)

====

system: H9c2 cells, DAPI nuclear count (cytotoxicity), overnight; assay: H9c2 cardiomyoblast cytotoxicity by nuclear count, SAR follow-up, cytotoxicity control for triacylglycerol accumulation inhibitor project, cell-based, DAPI fluorescence (AID 743160)
Activity calls are given as the source filed them. How the calls were made is not given here.
// IC50 lookup, one value per entry

MOLECULE	OBSERVATION_TYPE	RESULT
Cc1ccc(-c2csc(NC(=O)CSc3nc4ccccc4c(=O)n3CCCN(C)C)n2)cc1	IC50	> 50 µM (inactive)
COc1ccc(CCN2Cc3cccc(C(=O)Nc4cccc(-c5nc6ccccc6[nH]5)c4)c3C2=O)cc1OC	IC50	> 50 µM (inactive)
Cc1cc(C)c2nc(-c3ccncc3)cc(C(=O)N3CCN(Cc4ccccc4Cl)CC3)c2c1	IC50	23.6 µM (inactive)
COCCN1Cc2cccc(C(=O)Nc3nc4ccccc4[nH]3)c2C1=O	IC50	> 50 µM (inactive)
CSCCCN1Cc2cccc(C(=O)Nc3cccc(-c4nc5ccccc5[nH]4)c3)c2C1=O	IC50	> 50 µM (inactive)

input: What does the record list as IC50 for `COCCN1Cc2cccc(C(=O)Nc3cccc(C(=O)Nc4ccccc4OC)c3)c2C1=O` ?
output: > 50 µM (inactive)

input: Same read-out for `COc1ccccc1CCN1Cc2cccc(C(=O)Nc3cccc(-c4nc5ccccc5[nH]4)c3)c2C1=O` ?
output: > 50 µM (inactive)

input: Query `COCCn1cnc2cccc(C(=O)Nc3cccc(-c4nc5ccccc5[nH]4)c3)c2c1=O` next
output: > 50 µM (inactive)

input: And what about the molecule `Cc1ccccc1NC(=O)CSc1nc(Nc2ccccc2)nc(N2CCOCC2)n1` ?
output: > 50 µM (inactive)

input: Next: `CCCC(=O)Nc1nc2ccc(NC(=O)c3ccccc3F)cc2s1`
output: > 50 µM (inactive)

input: Moving on to the next molecule: `COCCN1Cc2cccc(C(=O)Nc3cccc(-c4nc5ccccc5[nH]4)c3)c2C1=O`
output: > 50 µM (inactive)

input: # iterate: `Cc1ccc(-c2nc(NC(=O)c3cc(C(C)(C)C)nn3C)sc2C)cc1Cl`
output: > 50 µM (inactive)

input: Further, for `CCn1c(SCC(=O)Nc2nc(-c3ccc(C)cc3)cs2)nnc1-c1ccccc1O` ?
output: 8.1 µM (inactive)

input: Another molecule to look at: CCOC(=O)c1cc(-c2ccccc2)sc1NC(=O)C(C)N1C(=O)NC(C)(c2ccc(Cl)cc2)C1=O (stereo not given)
output: > 50 µM (inactive)

input: Request: `O=C1COc2ccc(C(=O)CSc3nc4ccccc4c(=O)n3-c3ccc(Cl)c(Cl)c3)cc2N1`
output: 7.69 µM (inactive)

input: Okay, and `CCOC(=O)c1cccc(NC(=O)c2cccc3c2C(=O)N(CCOC)C3)c1` ?
output: > 50 µM (inactive)

input: Item: `COCCCN1Cc2cccc(C(=O)Nc3cccc(-c4nc5ccccc5[nH]4)c3)c2C1=O`
output: > 50 µM (inactive)

input: Same again, this time with `CCOc1ccccc1NC(=O)c1cccc(NC(=O)c2ccco2)c1`
output: 23.2 µM (inactive)

====

tested on: H9c2 cells, DAPI nuclear count (cytotoxicity), overnight; assay: H9c2 cardiomyoblast cytotoxicity by nuclear count, SAR follow-up, cytotoxicity control for triacylglycerol accumulation inhibitor project, cell-based, DAPI fluorescence (AID 743160)
Activity calls are given as the source filed them. How the calls were made is not given here.
OBSERVATION_TYPE: IC50

Below, each entry is followed by its recorded IC50 result.
O=[N+]([O-])c1ccc(Nc2nc(NC3CCCCC3)nc(N3CCCC3)n2)cc1 11 µM (inactive)
COCCN1Cc2cccc(C(=O)Nc3cccc(-c4nc5ccc(C)cc5[nH]4)c3)c2C1=O > 50 µM (inactive)

input: What does the record list as IC50 for `COCCN1Cc2cccc(C(=O)Nc3nc4ccccc4n3C)c2C1=O` ?
output: > 50 µM (inactive)

input: Try the compound `COCCN1Cc2cccc(C(=O)Nc3cccc(-c4nc5ccc(Cl)cc5[nH]4)c3)c2C1=O`
output: > 50 µM (inactive)

input: Subsequent entry: `Cc1cccc2c(C(=O)N3CCN(c4ccccc4)CC3)cc(-c3ccncc3)nc12`
output: > 50 µM (inactive)

input: Same for `O=C(CSc1nc2ccc(Nc3nc(N4CCOCC4)nc(N4CCOCC4)n3)cc2s1)Nc1ccccc1Cl`
output: 27.8 µM (inactive)

input: Repeat for the following compound: `O=C(Nc1cccc2ncccc12)c1ccc(Cl)cc1`
output: > 50 µM (inactive)

input: Query `O=C(Nc1cccc(-c2nc3ccccc3[nH]2)c1)c1cccc2c1C(=O)N(CCOc1ccccc1)C2` next
output: > 50 µM (inactive)

input: Moving on to the next compound: `COCCN1Cc2cccc(C(=O)Nc3cccc(C(=O)Nc4ccccc4)c3)c2C1=O`
output: > 50 µM (inactive)

input: Again, but for `O=C(Nc1cccc(-c2nc3ccccc3[nH]2)c1)c1cccc2c1C(=O)N(CCc1ccccc1)C2`
output: > 50 µM (inactive)
